TARGET_UNDER_TEST: UniProtKB Q99572
Sequence (Q99572 whole entry): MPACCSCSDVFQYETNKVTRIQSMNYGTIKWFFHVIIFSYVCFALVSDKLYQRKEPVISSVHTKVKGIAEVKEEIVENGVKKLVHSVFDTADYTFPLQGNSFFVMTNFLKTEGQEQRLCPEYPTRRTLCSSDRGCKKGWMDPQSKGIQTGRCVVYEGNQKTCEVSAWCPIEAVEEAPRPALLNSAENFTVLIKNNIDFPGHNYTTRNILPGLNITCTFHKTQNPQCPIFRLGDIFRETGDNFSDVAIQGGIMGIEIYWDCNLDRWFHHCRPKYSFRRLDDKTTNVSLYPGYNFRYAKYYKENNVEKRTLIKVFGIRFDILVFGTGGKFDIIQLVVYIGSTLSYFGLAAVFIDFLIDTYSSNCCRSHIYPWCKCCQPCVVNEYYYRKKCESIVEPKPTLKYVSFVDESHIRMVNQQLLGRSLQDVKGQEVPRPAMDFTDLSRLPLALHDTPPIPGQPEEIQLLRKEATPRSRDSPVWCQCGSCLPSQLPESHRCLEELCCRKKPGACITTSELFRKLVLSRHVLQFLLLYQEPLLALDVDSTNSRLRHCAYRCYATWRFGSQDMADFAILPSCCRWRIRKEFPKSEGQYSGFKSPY
ASSAY_DETAILS: Ca2+ flux (FLIPR) in 1321N1 cells expressing recombinant human P2X7;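 also: cells loaded with Calcium-4 dye, preincubated with test compound for 30 min, fluorescence change read 180 s after agonist addition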
Type: cell-based
RECORDED_CONDITIONS: 1321N1 cells, recombinant human P2X7, 250 μM BzATP
Measured pIC50 values are reported for all entries that follow.
Give only the number. pIC50 is defined as minus log10 of concentration in molar units.

Recorded results for 3 compounds are shown here.
[[record]]
compound = "Cc1c(C(=O)N2CCc3c(nnn3-c3ncccn3)C2)cccc1C(F)(F)F"
numeric_readout = 8.66

[[record]]
compound = "CCOC(=O)C1c2ncn(-c3ccccn3)c2CCN1C(=O)c1cccc(C(F)(F)F)c1Cl (centres unmarked)"
numeric_readout = 7.63

[[record]]
compound = "CCOC(=O)C1c2ncn(-c3ccccn3)c2CCN1C(=O)c1cccc(Cl)c1Cl (centres unmarked)"
numeric_readout = 6.85


Look up and report measured pIC50 for this entry: CCOC(=O)C1c2ncn(-c3cnccn3)c2CCN1C(=O)c1cccc(Cl)c1Cl (centres unmarked)
7.21

Input `O=C(c1cccc(C(F)(F)F)c1F)N1CCc2c(ncn2-c2ccc(F)cn2)C1` , output reported pIC50.
5.45

Answer with the recorded pIC50 for the compound listed here: Cc1ccnc(-n2nnc3c2CCN(C(=O)c2cccc(Cl)c2Cl)[C@H]3C)n1 (single isomer, unassigned)
8.44

Origin of measurements: patent US10112937B2
